Values were extracted from paper PMC7826789.

# System: ROCK2
# experimental context: Compound Concentration (nM):1000;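 note: KINOMEscan scanMAX binding as percent activity remaining versus control; lower means stronger binding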
Classification field: enter 1.0 for Percent Control values not below 70%, 0.0 for values below it.

Q: Does the reported Percent Control for O=C(Nc1n[nH]c2nc(-c3ccc(O)cc3)c(Br)cc12)C1CC1 [SB-725317] fall at or above the 70% mark?
Result: 1.0

Q: Now this one: Cl.O=S1CCN(Cc2ccc(-c3ccc4ncnc(Nc5ccc(OCc6ccccc6)c(F)c5)c4c3)o2)CC1 [GW576924A]
Result: 1.0

Q: Now this one: COc1ccccc1-c1cc(/C=C2\C(=O)Nc3ncc(Br)cc32)cc(Br)c1O [GW442130X]
Result: 1.0

Q: Now this one: CC(C)COC(=O)c1ccc2c(c1)/C(=C/Nc1ccc(S(N)(=O)=O)cc1)C(=O)N2 [GW416981X]
Result: 0.0

Please examine the following record next.
Q: Does the reported Percent Control for Cc1cc(O)cc(C)c1/C=C/c1cncc(C(N)=O)c1 [GW435821X] fall at or above the 70% mark?
Result: 1.0

----------
# System: MAP4K4
# experimental context: Compound Concentration (nM):1000
reported property: Percent Control (%)
// return numeric value only (unit: %, not printed)

Q: Which measured Percent Control belongs to CN(C)CCNC(=O)Nc1ccc(N(C)c2ccnc(Nc3ccc(CS(C)(=O)=O)cc3)n2)cc1.Cl [GW830900A] , tested on MAP4K4?
Result: 66

Q: Now this one: COc1cccc(-n2ncc3c(N/N=C/c4ccncc4)ncnc32)c1 [GW784752X]
Result: 96

Others:
Q: Which measured Percent Control belongs to CC1=C(C(=O)Nc2ccc3[nH]ncc3c2)C(c2ccc3ccccc3c2)CC(=O)N1 (stereo not shown) [GSK270822A] , tested on MAP4K4?
Result: 79

Q: Now this one: COc1ccc2c(-c3ccnc(Nc4cccc(OC(F)(F)F)c4)n3)cnn2n1 [GW810372X]
Result: 100

----------
# Test system: LRRK2
# experimental context: Compound Concentration (nM):1000
reported property: Percent Control (%)
// return numeric value only (unit: %, not printed)

Q: Which measured Percent Control belongs to COc1ccc2cc(-c3c(-c4ccncc4)nc(-c4ccc(S(C)(=O)=O)cc4C)n3C)ccc2c1 , tested on LRRK2?
Result: 96

Q: Now this one: COc1ccc(COc2ccc(Cc3cnc(N)nc3N)cc2OC)cc1 [GW632580X]
Result: 83

Q: Now this one: CCn1c(-c2nonc2N)nc2c(C#CC(C)(C)O)nc(OCCNC)cc21.Cl
Result: 100

Q: Now this one: Cl.c1ccc(Cc2nc3ccc(Nc4ncnc5ccccc45)cc3[nH]2)cc1 [GR269666A]
Result: 100

Okay, next one:
Q: Which measured Percent Control belongs to O=C1Nc2ccc(C(=O)c3ccco3)cc2C1=Cc1cc(Cl)c(O)c(Cl)c1 [GW406108X] , tested on LRRK2?
Result: 13

----------
# Tested on: PAK7
# experimental context: Compound Concentration (nM):1000
reported property: Percent Control (%)
// return numeric value only (unit: %, not printed)

Recorded results for 3 molecules are shown here.
Q: Which measured Percent Control belongs to Cl.O=S1CCN(Cc2ccc(-c3ccc4ncnc(Nc5ccc(OCc6ccccc6)c(F)c5)c4c3)o2)CC1 [GW576924A] , tested on PAK7?
Result: 100

Q: Now this one: CCc1ccc(Oc2nccc(-c3c(-c4ccc(F)cc4)ncn3C3CCNCC3)n2)cc1
Result: 98

Q: Now this one: Cl.O=C(O[C@H]1CN[C@H](C#Cc2cc3ncnc(Nc4ccc5c(cnn5Cc5ccccc5)c4)c3s2)C1)N1CCOCC1 [GSK200398A]
Result: 89

Others:
Q: Which measured Percent Control belongs to Cc1cc(O)cc(C)c1/C=C/c1cncc(C(N)=O)c1 [GW435821X] , tested on PAK7?
Result: 100

Q: Now this one: COc1cc(C)c(N(C)C(=O)CN(C)C)cc1Nc1nc(Nc2cccc(F)c2C(N)=O)c2cc[nH]c2n1
Result: 82

Q: Now this one: COC(=O)Nc1nc2ccc(Oc3ccc(NC(=O)Nc4cc(C(F)(F)F)ccc4F)cc3)cc2s1.Cl [GW693917A]
Result: 91

Q: Now this one: COc1cc(C=NNc2ncnc3c2cnn3-c2ccccc2)ccc1O [GW513184X]
Result: 100

Q: Now this one: NS(=O)(=O)c1ccc(Nc2ncc(-c3ccccc3)o2)cc1 [GW572399X]
Result: 100
